Source listed as the supplement of paper PMC10899765.

Listed here are sequences together with their documented 5+ nucleoli phenotype percent effect.
- System: MCF10A
- test: 5+ nucleoli phenotype percent effect (relative to siNT 0% and siKIF11 100%); higher = more cells with five or more nucleoli
- experimental.parameters: 20 nM; 72 h
State the answer as a number, implicitly in %.

// below: answered sequences
5+ nucleoli phenotype percent effect in this record for CUCCUCUGUUUUCUUUCCUAG [hsa-miR-6780a-3p] : -34.9

The measured 5+ nucleoli phenotype percent effect associated with CCACCAGGUCUAGCAUUGGGAU [hsa-miR-4733-3p] reads -9.32

// next item, 5+ nucleoli phenotype percent effect requested
Entry AGGAGCAGUGCCGGCCAAGGCGCC [hsa-miR-6081] , 5+ nucleoli phenotype percent effect reported as -52.9

###

- Tested on: MCF10A
- test: percent viability (nuclei count relative to siNT); higher = more viable cells
- experimental.parameters: 20 nM; 72 h
In this section we review reported percent viability values for a set of sequences.

Reported percent viability of AAGCAGCAGUGGCAAGACUCCU [hsa-miR-6838-5p] : 24.7%

So for AUGAAGUGCACUCAUGAUAUGU [hsa-miR-3616-5p] , the logged percent viability turned out to be 27.9%

response.value for GGUGGGCUUCCCGGAGGG [hsa-miR-4417] (field: percent viability) = 77.8%

Lab note: UAUGGAGGUUCUAGACCAUGUU [hsa-miR-4802-5p] gave percent viability of 22.7%

Further cases:
Item: AAAACUGCAGUUACUUUUGC [hsa-miR-548av-3p] | percent viability: 83.1%

Summary for this sequence, GUUCUGUUAACCCAUCCCCUCA [hsa-miR-4652-3p] : percent viability is 28.2%

Recorded result, UAGGGGCAGCAGAGGACCUGGG [hsa-miR-4688] , percent viability: 17.5%

Briefly, percent viability measured for CUUCCGGUCUGUGAGCCCCGUC [hsa-miR-4664-3p] : 36.8%

###

- System: MCF10A
- test: percent viability (nuclei count relative to siNT); higher = more viable cells
- experimental.parameters: 20 nM; 72 h
Items are presented alongside their recorded percent viability.

percent viability reported for this sequence GAUGAUGAUGGCAGCAAAUUCUGAAA [hsa-miR-1272] : 76.8%

percent viability measured on ACUAAAGGAUAUAGAAGGUUUU [hsa-miR-4509] = 103%

###

- System: MCF10A
- test: one-nucleolus phenotype percent effect (relative to siNT 0% and siNOL11 100%); higher = more cells with one nucleolus (ribosome biogenesis inhibition)
- experimental.parameters: 20 nM; 72 h
# one-nucleolus phenotype percent effect listing for each entry below
// return numeric value only (unit: %, not printed)

Quick note, one-nucleolus phenotype percent effect for UGGGCUGAGGGCAGGAGGCCUGU [hsa-miR-4656] landed at 22.2

Item: AAGGUUUGGAUAGAUGCAAUA [hsa-miR-4464] | one-nucleolus phenotype percent effect: 6.58

Reported one-nucleolus phenotype percent effect ( AUACUGUGAAUUUCACUGUCACA [hsa-miR-4693-5p] ) = 2.95

Entry under test: AAAGGUAAUUGCAGUUUUUCCC [hsa-miR-548ai] . Its one-nucleolus phenotype percent effect was -23.8

// one-nucleolus phenotype percent effect lookup, sequence = GCUCGGACUGAGCAGGUGGG [hsa-miR-3917] , result: -20.1

Further cases:
one-nucleolus phenotype percent effect in this record for CCUCUGAAAUUCAGUUCUUCAG [hsa-miR-146a-3p] : -13.5

Entry AACGGCAAUGACUUUUGUACCA [hsa-miR-548al] ; one-nucleolus phenotype percent effect = -4.22

one-nucleolus phenotype percent effect in this record for UUGAAAGGCUAUUUCUUGGUC [hsa-miR-488-3p] : 39.9

one-nucleolus phenotype percent effect in this record for GUGGAAAGCAUGCAUCCAGGGUGU [hsa-miR-3978] : 15

Entry under test: CUGUUGCCACUAACCUCAACCU [hsa-miR-744-3p] . Its one-nucleolus phenotype percent effect was 27.3

one-nucleolus phenotype percent effect measured on UGAGGGAGGAGGUUGGGUA [hsa-miR-6133] = 1.81

According to the records, this sequence ACCUGGCAUACAAUGUAGAUUU [hsa-miR-221-5p] displays one-nucleolus phenotype percent effect of 62.6

###

- Tested on: MCF10A
- test: one-nucleolus phenotype percent effect (relative to siNT 0% and siNOL11 100%); higher = more cells with one nucleolus (ribosome biogenesis inhibition)
- experimental.parameters: 20 nM; 72 h
recorded.metric: one-nucleolus phenotype percent effect (%)
All answers are understood in %, so give the number only.

The sequence GGGGAGCUGUGGAAGCAGUA [hsa-miR-920] on MCF10A: one-nucleolus phenotype percent effect was -6.81

Readout one-nucleolus phenotype percent effect for CAUGCUAGGAUAGAAAGAAUGG [hsa-miR-3146] , test system MCF10A, was 15.7

Field one-nucleolus phenotype percent effect (MCF10A), entry AUUAAGGACAUUUGUGAUUGAU [hsa-miR-4477b] : -4.92

# UCUUCACCUGCCUCUGCCUGCA [hsa-miR-6754-3p] with MCF10A: one-nucleolus phenotype percent effect is -24.7

Recorded one-nucleolus phenotype percent effect for UCCGUCUCAGUUACUUUAUAGC [hsa-miR-340-3p] on MCF10A was 1.48

Given the sequence AUGGUCUCCUGUUCUCUGCAG [hsa-miR-6843-3p] and test system MCF10A, the measured one-nucleolus phenotype percent effect is 10.8

Bench note, MCF10A: entry UGUGGGUUCUGGGUUGGGGUGA [hsa-miR-6793-5p] , its one-nucleolus phenotype percent effect = 30.2

Value sought: one-nucleolus phenotype percent effect, system MCF10A, item AAAAACCACAAUUACUUUUGCACCA [hsa-miR-548aa] . Result: 51.2

Further cases:
Simply: CAAGCUUGUAUCUAUAGGUAUG [hsa-miR-100-3p] , MCF10A, one-nucleolus phenotype percent effect = -5.48

Reported MCF10A one-nucleolus phenotype percent effect for item AGGGCAUGUCCAGGGGGU [hsa-miR-4253] was 18.3

With MCF10A as the test system, GAAAAUCCUUUUUGUUUUUCCAG [hsa-miR-4668-3p] showed one-nucleolus phenotype percent effect of -14.6

Fill in: MCF10A one-nucleolus phenotype percent effect for CUACCCCCCAUCCCCCUGUAG [hsa-miR-6798-3p] = -5.24

Summary: CGUGUUCACAGCGGACCUUGAU [hsa-miR-124-5p] , MCF10A, one-nucleolus phenotype percent effect = 6.24

###

one-nucleolus phenotype percent effect values for the sequences below.
- System: MCF10A
- test: one-nucleolus phenotype percent effect (relative to siNT 0% and siNOL11 100%); higher = more cells with one nucleolus (ribosome biogenesis inhibition)
- experimental.parameters: 20 nM; 72 h

Field: example entries. Status: answers known.
Quick note, one-nucleolus phenotype percent effect for UCUCAGCUGCUGCCCUCUCCAG [hsa-miR-6787-3p] landed at -24.6%

The recorded one-nucleolus phenotype percent effect for CAAGCUCGCUUCUAUGGGUCUG [hsa-miR-99a-3p] is 23.3%

GET /value?item= CGUCUUACCCAGCAGUGUUUGG [hsa-miR-200c-5p] &field=one-nucleolus phenotype percent effect returns -5.6%

Documented one-nucleolus phenotype percent effect of CGGGAGCUGGGGUCUGCAGGU [hsa-miR-6726-5p] : -17.2%

Lab note: measured one-nucleolus phenotype percent effect of GCCCUCCGCCCGUGCACCCCG [hsa-miR-1470] was -19.6%

Now take the following sequence into account.
The sequence identified as AUUCUAAGUGCCUUGGCC [hsa-miR-4263] registered its one-nucleolus phenotype percent effect at -0.791%

###

- Tested on: MCF10A
- test: 5+ nucleoli phenotype percent effect (relative to siNT 0% and siKIF11 100%); higher = more cells with five or more nucleoli
- experimental.parameters: 20 nM; 72 h
recorded.metric: 5+ nucleoli phenotype percent effect
A complete answer gives the number followed by the unit.

Summary for this sequence, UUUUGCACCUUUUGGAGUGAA [hsa-miR-507] : 5+ nucleoli phenotype percent effect is -28%

---
Entry UUGCCACACUGCAACACCUUACA [hsa-miR-3064-3p] ; 5+ nucleoli phenotype percent effect = -31.2%

GCCUGGAGCUACUCCACCAUCUC [hsa-miR-4254] has a reported 5+ nucleoli phenotype percent effect of 11.1%

get_value(item= GAACGGCUUCAUACAGGAGUU [hsa-miR-337-5p] , readout=5+ nucleoli phenotype percent effect) returns -25.8%

###

- System: MCF10A
- test: percent viability (nuclei count relative to siNT); higher = more viable cells
- experimental.parameters: 20 nM; 72 h
Each item that follows carries a reported percent viability.

These solved cases illustrate the format of a correct answer.
Record summary for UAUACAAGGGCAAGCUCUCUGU [hsa-miR-381-3p] : reported percent viability = 90.7%

Form field percent viability, entry UCAGCACCAGGAUAUUGUUGGAG [hsa-miR-3065-3p] : 67.2%

// recorded percent viability for UGGCGGGGGUAGAGCUGGCUGC [hsa-miR-6787-5p] : 23.7%

get_value(item= UUGUGUGAGUACAGAGAGCAUC [hsa-miR-6818-5p] , readout=percent viability) returns 17.1%

Recorded percent viability (sequence ACAGAGGACAGUGGAGUGUGAGC [hsa-miR-6847-5p] ): 51.1%

New cases:
The recorded percent viability for CUGGGGGGAGGAGACCCUGCU [hsa-miR-7109-5p] is 38.9%

Form: sequence = UGGUCUGCAAAGAGAUGACUGU [hsa-miR-4527] ; percent viability = 12.3%

Data point: UUGCUCUGCUCCCCCGCCCCCAG [hsa-miR-6805-3p] ; percent viability = 36.2%
